Values from patent US8309558B2

Known IC50 of a selection of compounds
molecular target: HCV NS5B RdRp genotype 1b (Hepatitis C virus genotype 1b, UniProt Q9WMX2); construct: The protein was expressed with an 18 amino acid C-terminal truncation to enhance the solubility; made in house; host or cells: E. coli BL21(DE3), pET21a vector; assay: Standard HCV NS5B RdRp enzyme assay; type: biochemical; conditions: Table 1a; HCV NS5B RdRp genotype 1b; read-out: IC50
Sequence (Q9WMX2 2420-2992): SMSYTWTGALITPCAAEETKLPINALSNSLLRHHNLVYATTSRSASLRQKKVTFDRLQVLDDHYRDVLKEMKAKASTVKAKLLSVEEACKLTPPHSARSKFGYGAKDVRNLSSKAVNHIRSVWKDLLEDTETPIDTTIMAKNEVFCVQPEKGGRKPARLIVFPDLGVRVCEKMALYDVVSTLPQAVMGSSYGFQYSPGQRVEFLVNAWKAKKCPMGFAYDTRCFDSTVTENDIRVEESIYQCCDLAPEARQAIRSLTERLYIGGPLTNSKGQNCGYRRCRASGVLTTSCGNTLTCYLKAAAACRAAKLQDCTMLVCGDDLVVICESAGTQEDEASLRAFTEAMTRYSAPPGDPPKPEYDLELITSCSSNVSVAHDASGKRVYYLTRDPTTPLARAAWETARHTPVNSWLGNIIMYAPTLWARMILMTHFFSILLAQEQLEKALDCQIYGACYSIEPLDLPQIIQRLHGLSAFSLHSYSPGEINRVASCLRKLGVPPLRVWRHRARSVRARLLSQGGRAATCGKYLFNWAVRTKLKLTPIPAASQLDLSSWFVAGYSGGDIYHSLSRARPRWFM

>>> print(df.to_string())
                                   compound                        measurement_target  assay_readout  observed_value
0  CNC(=O)c1c(-c2ccc(F)cc2)oc2ccc(-c3cccc(C(=O)NC(C)c4ccccc4)c3)cc12 (stereo not shown)  HCV NS5B RdRp genotype 1b (Hepatitis C virus genotype 1b, UniProt Q9WMX2)           IC50        < 250 nM

`CNC(=O)c1c(-c2ccc(F)cc2)oc2ccc(-c3cccc(C(=O)NCc4nccs4)c3)cc12` tested on HCV NS5B RdRp genotype 1b (Hepatitis C virus genotype 1b, UniProt Q9WMX2) gave IC50: 250 to 1000 nM

Form field IC50 for item `CNC(=O)c1c(-c2ccc(F)cc2)oc2ccc(-c3ccc(C(=O)N(C)CCO)cc3)cc12` on HCV NS5B RdRp genotype 1b (Hepatitis C virus genotype 1b, UniProt Q9WMX2): 1000 to 10000 nM

Kindly note: HCV NS5B RdRp genotype 1b (Hepatitis C virus genotype 1b, UniProt Q9WMX2), `CNC(=O)c1c(-c2ccc(F)cc2)oc2ccc(-c3cccc(C(=O)Nc4cncc(C(=O)O)c4)c3)cc12` , IC50 value reported: 250 to 1000 nM

====

system: HCV replicon cells; test: HCV replicon FRET / luciferase assay (96-well plates); type: cell-based; settings: Hepatitis C virus, Table 1b; HCV replicon; read-out: EC50
Listed compounds paired with reported EC50

Example entries begin here.
                                   compound  measurement_target  assay_readout    observed_value
0  CNC(=O)c1c(-c2ccc(F)cc2)oc2ccc(-c3cc(C(=O)NC4(c5ccccn5)CC4)c(OC(C)C)cc3C)cc12  HCV replicon cells           EC50          < 250 nM
1  CNC(=O)c1c(-c2ccc(F)cc2)oc2ccc(-c3cc(C(=O)NCC(C)C)ccc3OCCN3CCOCC3)cc12  HCV replicon cells           EC50          < 250 nM
2  CNC(=O)c1c(-c2ccc(F)cc2)oc2ccc(-c3ccc(F)c(C(=O)NC(C)(C)C)c3)cc12  HCV replicon cells           EC50          < 250 nM
3  CNC(=O)c1c(-c2ccc(F)cc2)oc2ccc(-c3cc(C(=O)NCC(C)C)ccc3OCCC3CNCCO3)cc12 (stereo not drawn) [drawing 415]  HCV replicon cells           EC50          < 250 nM
4  CNC(=O)c1c(-c2ccc(F)cc2)oc2ccc(-c3cc(OCCC4CCNCC4)cc(C(=O)NCC(C)C)c3)cc12  HCV replicon cells           EC50  1000 to 10000 nM

Summary for this compound, `CNC(=O)c1c(-c2ccc(F)cc2)oc2ccc(-c3cccc(C(=O)NC4(c5ccccn5)CC4)c3F)cc12` : EC50 is < 250 nM

Query `CNC(=O)c1c(-c2ccc(F)cc2)oc2cc(NS(C)(=O)=O)c(-c3cc(C(=O)NC4(c5ccccc5)CC4)ccc3C)cc12` yields EC50 of < 250 nM

Lookup result for `CNC(=O)c1c(-c2ccc(F)cc2)oc2ccc(-c3cc(C(=O)NC4(c5nnc(C)[nH]5)CC4)ccc3C)cc12` ; measured EC50: < 250 nM

Entry `CNC(=O)c1c(-c2ccccc2)oc2ccc(-c3cc(C(=O)NC4(c5nnc(-c6ccccc6)[nH]5)CC4)ccc3C)cc12` ; EC50 = < 250 nM

Item: `CNC(=O)c1c(-c2ccc(F)cc2)oc2ccc(-c3cc(OCCc4ccncc4)cc(C(=O)NCC(C)C)c3)cc12` | EC50: > 500 nM

Memo: `CNC(=O)c1c(-c2ccc(F)cc2)oc2ccc(-c3cncc(C(=O)NC(C)(C)C)c3)cc12` , reported EC50: < 250 nM

Quick note, EC50 for `CNC(=O)c1c(-c2ccc(F)cc2)oc2ccc(-c3cc(OCCN(C)C)cc(C(=O)NCC(C)C)c3)cc12` landed at 250 to 1000 nM

Data point: `CNC(=O)c1c(-c2ccc(F)cc2)oc2ccc(-c3cc(C(=O)NC4(c5ccccn5)CC4)ccc3C(F)(F)F)cc12` ; EC50 = < 250 nM

// `CNC(=O)c1c(-c2ccc(F)cc2)oc2ccc(-c3cc(C(=O)NC4(c5ccccn5)CC4)ccc3C3CC3)cc12` : EC50 value = > 10000 nM

Data point: `CNC(=O)c1c(-c2ccc(F)cc2)oc2ccc(-c3cc(C(=O)NC4(c5nnc(-c6ccccn6)[nH]5)CC4)ccc3C)cc12` ; EC50 = < 250 nM
